Target: Nucleoprotein (Lymphocytic choriomeningitis virus (strain Armstrong)) (UniProt P09992)
Sequence (P09992 whole entry, looked up): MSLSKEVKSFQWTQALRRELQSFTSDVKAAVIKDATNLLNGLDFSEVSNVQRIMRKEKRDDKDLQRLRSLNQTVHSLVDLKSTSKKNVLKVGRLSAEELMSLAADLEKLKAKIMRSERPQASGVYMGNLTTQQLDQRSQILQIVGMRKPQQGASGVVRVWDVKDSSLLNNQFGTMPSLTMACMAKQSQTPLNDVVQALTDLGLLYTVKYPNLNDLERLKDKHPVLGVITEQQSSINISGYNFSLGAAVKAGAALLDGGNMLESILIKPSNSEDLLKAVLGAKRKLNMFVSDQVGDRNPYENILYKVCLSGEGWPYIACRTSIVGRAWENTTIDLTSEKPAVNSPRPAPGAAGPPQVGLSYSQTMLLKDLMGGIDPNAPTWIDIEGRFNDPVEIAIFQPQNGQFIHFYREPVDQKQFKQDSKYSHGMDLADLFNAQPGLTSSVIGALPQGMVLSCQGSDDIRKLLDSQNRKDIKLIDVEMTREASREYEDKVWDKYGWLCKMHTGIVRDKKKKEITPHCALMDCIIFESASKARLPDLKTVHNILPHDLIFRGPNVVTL
Assay: qHTS for Inhibitors of the Functional Ribonucleoprotein Complex (vRNP) of Lymphocytic Choriomeningitis Arenaviruses (LCMV): LCMV Primary Screen - GLuc reporter signal (AID 1347086); also: nearly all actives have a fitted effect of over 70% in size
Conditions: LCMV minigenome vRNP cell assay, Gaussia luciferase reporter; series mostly up to 57.5 µM
Results filed as inconclusive are left out. Active and inactive are the calls of the source. Calls follow the shape of the full dose curve.
value.type: outcome

Check out these entries, answers already filled in.
{"molecule": "COCCOCCOCCOC", "measurement.target": "Nucleoprotein (Lymphocytic choriomeningitis virus (strain Armstrong)) (UniProt P09992)", "value.type": "outcome", "observed.measurement": "inactive"}
{"molecule": "CC(C)CCO", "measurement.target": "Nucleoprotein (Lymphocytic choriomeningitis virus (strain Armstrong)) (UniProt P09992)", "value.type": "outcome", "observed.measurement": "inactive"}
{"molecule": "Cc1c(NC(=O)c2ccc(C(C)(C)C)cc2)cccc1-c1cn(C)c(=O)c(Nc2ccc(C(=O)N3CCOCC3)cc2)n1", "measurement.target": "Nucleoprotein (Lymphocytic choriomeningitis virus (strain Armstrong)) (UniProt P09992)", "value.type": "outcome", "observed.measurement": "inactive"}
{"molecule": "CC(Oc1ccc(O)cc1)(P(=O)(O)O)P(=O)(O)O", "measurement.target": "Nucleoprotein (Lymphocytic choriomeningitis virus (strain Armstrong)) (UniProt P09992)", "value.type": "outcome", "observed.measurement": "inactive"}
{"molecule": "CC1=C(/C=C/C(C)=C/C=C/C(C)=C/C=C/C=C(C)/C=C/C=C(\\C)C=O)C(C)(C)CCC1", "measurement.target": "Nucleoprotein (Lymphocytic choriomeningitis virus (strain Armstrong)) (UniProt P09992)", "value.type": "outcome", "observed.measurement": "inactive"}
{"molecule": "C/C(=C\\C(=O)O)CC(=O)O", "measurement.target": "Nucleoprotein (Lymphocytic choriomeningitis virus (strain Armstrong)) (UniProt P09992)", "value.type": "outcome", "observed.measurement": "inactive"}
{"molecule": "O=c1oc(-c2ccc(O)c(O)c2)cc2cc(O)cc(O)c12", "measurement.target": "Nucleoprotein (Lymphocytic choriomeningitis virus (strain Armstrong)) (UniProt P09992)", "value.type": "outcome", "observed.measurement": "inactive"}
{"molecule": "COC(=O)C1C2CC3c4[nH]c5cc(OC)ccc5c4CCN3CC2CC(OC(=O)c2cc(OC)c(OC)c(OC)c2)C1OC (stereo unspecified)", "measurement.target": "Nucleoprotein (Lymphocytic choriomeningitis virus (strain Armstrong)) (UniProt P09992)", "value.type": "outcome", "observed.measurement": "inactive"}
{"molecule": "C[C@@H]1CCCCCCCCCCC1=O", "measurement.target": "Nucleoprotein (Lymphocytic choriomeningitis virus (strain Armstrong)) (UniProt P09992)", "value.type": "outcome", "observed.measurement": "inactive"}
{"molecule": "CC(=O)[C@H]1CCC2C3CC=C4C[C@@H](OS(=O)(=O)O)CC[C@]4(C)C3CC[C@@]21C (stereo partly specified)", "measurement.target": "Nucleoprotein (Lymphocytic choriomeningitis virus (strain Armstrong)) (UniProt P09992)", "value.type": "outcome", "observed.measurement": "inactive"}

Next up:
Measured outcome of "COc1cc2c(O)c3c(c(-c4ccc5c(c4)OCO5)c2cc1OC)C(=O)OC3" : inactive
